Biological target: SARS CoV-2 spike trimer protein from the parental Wuhan-Hu-1 isolate (extracellular domain, furin-cl (SARS-CoV-2 (Wuhan-Hu-1)))
Assay: ELISA, spike protein coated, IgG detected with anti-human Fc-HRP
readout: pEC50
Value format note: pEC50 is -log10 of concentration (mol/L); just state the number.

For the binder shown here, SR3A3 ultralong CDR3 chimeric bovine-human IgG1 antibody (antibody) VH: QVQLRESGPSLVKPSQTLSLTCTISGFSLSSYAVLWVRQAPGKPLEWLGSIDTAENTGYNPGLKSRLSITKDNSKSQVSLSVSSVTTEDSATYYCATVHQKTRKEKNCPDGYIYSSNITSGFDCGVWICRRVGSAFCSRTGDYTSPTELDIYEFYVEGWGQGVPVTVSS VL: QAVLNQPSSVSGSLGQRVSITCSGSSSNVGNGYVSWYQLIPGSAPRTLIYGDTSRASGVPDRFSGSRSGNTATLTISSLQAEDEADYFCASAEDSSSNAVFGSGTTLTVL , give the reported pEC50.
10.43

For the binder shown here, R2D6 chimeric bovine-human IgG1 antibody (antibody, V domains shown) VH: QVQLRESGPSLVKPSQTLSLTCTTSGFSLSSYAVGWVRQAPGKALEWVGDIDYVGNTDYNPALKSRLSITKDNSKSQVSLVVSSVTAEDAATYYCAKYSGAYAYAACNYYGWRCAWESYIDAWGQGLLVTVSS VL: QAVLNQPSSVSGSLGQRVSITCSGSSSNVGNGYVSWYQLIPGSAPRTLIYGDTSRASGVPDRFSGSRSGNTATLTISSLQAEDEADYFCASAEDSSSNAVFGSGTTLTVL , give the reported pEC50.
9.39

For the binder shown here, RBD A2 chimeric bovine-human IgG1 antibody (antibody, V domains shown) VH: QVQLRESGPSLVKPLQILSLTCTVSGFSLSSNGVVWVRQAPGKALEWLGDICSTGGTSFNPALKSRLSIAKDNSKSQVSLSVRSVTPEDTATYYCARSRGYDCYANVDALDYVDAWGQGLLVTVSS VL: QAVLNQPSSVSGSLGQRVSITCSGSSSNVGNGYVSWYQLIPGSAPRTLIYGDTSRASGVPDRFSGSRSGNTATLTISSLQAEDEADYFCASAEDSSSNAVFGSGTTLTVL , give the reported pEC50.
10.62

For the binder shown here, RBD C6 chimeric bovine-human IgG1 antibody (antibody, V domains shown) VH: QVQLRESGPSLVKPSQTLSLTCTVSGFSLSSNGVVWVRQAPGRPLEWLGDICSNGGTSFNPALKSRLSIAKDNSESQVSLTVRSVTPEDTATYYCARSRGYDCYAYVYALDTVDAWGQGLLVTVSS VL: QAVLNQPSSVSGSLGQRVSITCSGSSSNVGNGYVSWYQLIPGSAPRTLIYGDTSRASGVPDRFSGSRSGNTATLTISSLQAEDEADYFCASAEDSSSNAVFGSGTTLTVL , give the reported pEC50.
10.52

For the binder shown here, R2B1 chimeric bovine-human IgG1 antibody (antibody, V domains shown) VH: QVQLRESGPSLVKPSQTLSLTCTVSGFSLSDNNVGWVRQAPGKALEWLGVMHNDGNKGYNPALKSRLSITKDSSKSQVSLSLSSVTSEDTATYYCTRDNARCDSWTYDSCDTWYRNSWHVDAWGQGLLVTVSS VL: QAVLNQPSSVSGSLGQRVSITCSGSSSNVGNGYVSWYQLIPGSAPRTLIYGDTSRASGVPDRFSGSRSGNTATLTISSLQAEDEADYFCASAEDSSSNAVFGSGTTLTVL , give the reported pEC50.
9.43

For the binder shown here, RBD F4 chimeric bovine-human IgG1 antibody (antibody, V domains shown) VH: QVQLRESGPSLVKPSQTLSLTCTVSGFSLSSNGVVWVRQAPGKALEWLGDICSTGGTSFNPALKSRLSIAKDNSKSQVSLSVRSVTPEDTATYYCARSRGYDCYANVDALDYVDAWGQGLLVTVSS VL: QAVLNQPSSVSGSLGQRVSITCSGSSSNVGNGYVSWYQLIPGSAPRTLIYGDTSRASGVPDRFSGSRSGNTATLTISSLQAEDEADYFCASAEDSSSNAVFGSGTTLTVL , give the reported pEC50.
10.52

For the binder shown here, R2C3 (R5C1) ultralong CDR3 chimeric bovine-human IgG1 antibody (antibody) VH: QVQLRESGPSLVKPSQTLSLTCTASGFSLSDKPVGWVRQAPGKPLEWLGSIDTAENTGYNPGLKSRLSITKDNSKSQVSLSLSSVTTEDSATYYCATVHQKTRKEKSCPDGYLYSSNTGRGYDCGVWTCRRVGGEFCSATGDWTSPSEEDFYEFYVDTWGQGAPVTVSS VL: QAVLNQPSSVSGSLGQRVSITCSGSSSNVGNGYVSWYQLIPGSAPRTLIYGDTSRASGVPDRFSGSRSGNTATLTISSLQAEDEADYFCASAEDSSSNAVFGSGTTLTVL , give the reported pEC50.
9.41

# credit: patent US20240262893A1
